assay: yeast display, Sf9 membrane polyspecificity reagent, FACS + sequencing; frameworks hold sequencing errors
assay_endpoint: polyreactivity (PSR sort gate)

query_sequence	observed_measurement
QVQLVESGGGLVQAGGSLRLSCAASGFTFGGYAMGWYRQAPGKERELVAAISRSGGSTSYADSVKGRFTISRDNAKNTVYLQMNSLKPEDTAVYYCATLWTTKYWGQGTQVTVSS	high polyreactivity
QVQLVESGGGLVQAGGSLRLSCAASGSIFWRYAMGWDRQAPGKERELVATITSRGGSTYYADSVKGRFTISRDNAKNTVYLQMNSLKPEDTAVYYCAATGLPGYYAYDYWGQGTQVTVSS	low polyreactivity
QVQLVESGGGLVQAGGSLRLSCAASGSIFTQNAMGWYRQAPGKERALVAAMSSGGSTNDADSVKGRFTISRDNAKNTVYLQMNSLTPEDTAVDYCAKSIDGWYWRRRRYDYWGQGTQVTVSS	low polyreactivity
QVQLVESGGGLVQAGGSLRLSCAASGRILHGYTMGWYRQAPGKERELVAAITSGGSTYYADSVKGRFTISRDNAKNTVYLQMNSLKPEDTAVYYCAAASYRHEEYYWGQGTQVTVSS	high polyreactivity

Problem: Quick one: polyreactivity (PSR sort gate) of QVQLVESGGGLVQAGVSLRLSCAASGSIFYAYAMGWYRQAPGKERELVAVINSGGSTYYADSVKGRFRISSEYAKNTVYLQMNSLKPEDTAVYYCNGTQYRGKYDYPPPGRGYYYWGQGTHVTVSS ?
Solution: high polyreactivity
